# Test system: Faecalibacterium prausnitzii A2-165
# PROCEDURE TEXT: MIC by broth microdilution (CLSI), type strain
# Assay type: cell-based
# STATED CONDITIONS: Faecalibacterium prausnitzii, A2165; test strain A2-165; read-out: MIC
Entries and their MIC values follow.
REPORTED PROPERTY: MIC (µg/mL)

[[record]]
molecule = "COc1c(N2C[C@@H]3CCCN[C@@H]3C2)c(F)cc2c(=O)c(C(=O)O)cn(C3CC3)c12 [MXF, moxifloxacin]"
reported_property = "MIC"
value_modifier = "="
data_value = 16

[[record]]
molecule = "CCC[C@@H]1C[C@@H](C(=O)N[C@@H]([C@H]2O[C@H](SC)[C@H](O)[C@@H](O)[C@H]2O)[C@H](C)Cl)N(C)C1 [CLI, clindamycin]"
reported_property = "MIC"
value_modifier = "≤"
data_value = 0.125

[[record]]
molecule = "O=C(N[C@H](CO)[C@H](O)c1ccc([N+](=O)[O-])cc1)C(Cl)Cl [CHL, chloramphenicol]"
reported_property = "MIC"
value_modifier = "="
data_value = 64

[[record]]
molecule = "Cc1ncc([N+](=O)[O-])n1CCO [MTZ, metronidazole]"
reported_property = "MIC"
value_modifier = "="
data_value = 4

[[record]]
molecule = "C[C@@H](O)[C@H]1C(=O)N2C(C(=O)O)=C(S[C@@H]3CN[C@H](C(=O)N(C)C)C3)[C@H](C)[C@H]12 [MEM, meropenem]"
reported_property = "MIC"
value_modifier = ">"
data_value = 64

[[record]]
molecule = "CO/N=C(\\C(=O)N[C@@H]1C(=O)N2C(C(=O)O)=CCS[C@H]12)c1csc(N)n1 [CTZ, ceftizoxime]"
reported_property = "MIC"
value_modifier = "="
data_value = 64

